STUDY_SYSTEM: T1, Human CD19-his protein (human, UniProt P15391 20-291)
T1 construct: bought protein; also called human CD19 protein; recombinant human CD19-His; not shown: His tag
T1 sequence (looked up): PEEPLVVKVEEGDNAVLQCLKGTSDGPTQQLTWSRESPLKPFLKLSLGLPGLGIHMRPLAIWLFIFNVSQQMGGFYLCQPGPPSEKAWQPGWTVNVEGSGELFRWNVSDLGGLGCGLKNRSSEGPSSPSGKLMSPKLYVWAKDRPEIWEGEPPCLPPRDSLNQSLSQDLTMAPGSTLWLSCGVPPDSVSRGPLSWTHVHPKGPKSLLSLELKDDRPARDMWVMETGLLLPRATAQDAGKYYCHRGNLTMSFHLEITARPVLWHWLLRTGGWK
TEST_SUMMARY: ELISA, antibody at 100 nM
READOUT_NAME: OD450

Which OD450 value is on record for F3.64.4 (antibody, human IgG1, V domains shown, human-murine chimeric antibody, human IgG1) VH: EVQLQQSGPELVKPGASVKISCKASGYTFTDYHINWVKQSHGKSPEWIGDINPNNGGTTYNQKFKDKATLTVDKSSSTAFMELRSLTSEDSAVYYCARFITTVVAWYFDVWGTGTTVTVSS VL: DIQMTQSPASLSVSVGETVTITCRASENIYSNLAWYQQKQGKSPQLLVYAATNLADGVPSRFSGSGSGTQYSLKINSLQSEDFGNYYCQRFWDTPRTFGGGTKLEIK ? 0.83

Value lookup for OD450; key = F6.12.12 (antibody, human IgG1, V domains shown, human-murine chimeric antibody, human IgG1) VH: DVQLQESGPGLVKPSQSLSLTCSVTGYSITSGYYWIWIRQFPGNKLEWMGYISYDASNKYKPSLKNRISITRDTSKNQFFLKLNSVTAEDTATYFCAREDLRGYFDVWGTGTSVTVSS VL: DIVLTQSPASLAVSLGRRATISCRASQSVSTSGFSYMHWYQQKPGQPPNLLIKYASILQSGVPARFSGSGSGTDFILNIHPVEDVDTATYYCQHSWGIPFTFGSGTKLEIK 1.32

I'd like to know its OD450. The binder in question is F4.96.6 (antibody, human IgG1, V domains shown, human-murine chimeric antibody, human IgG1) VH: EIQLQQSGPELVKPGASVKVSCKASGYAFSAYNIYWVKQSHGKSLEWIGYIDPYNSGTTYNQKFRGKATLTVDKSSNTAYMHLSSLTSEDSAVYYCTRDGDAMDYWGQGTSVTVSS VL: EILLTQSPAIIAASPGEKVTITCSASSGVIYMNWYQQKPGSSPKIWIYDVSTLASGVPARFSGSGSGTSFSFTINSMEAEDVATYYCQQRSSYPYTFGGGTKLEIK 1.64
